src = patent US20240239894A1

- systemUnderTest: T1, Human B7-H4 ECD-Flag-His10 (monomeric) (human, UniProt Q7Z7D3 25-259)
- T1 construct: Minimally biotinylated for KinExA; also called hB7H4-ECD-Flag-His10; B7-H4-FLAG
- T1 sequence: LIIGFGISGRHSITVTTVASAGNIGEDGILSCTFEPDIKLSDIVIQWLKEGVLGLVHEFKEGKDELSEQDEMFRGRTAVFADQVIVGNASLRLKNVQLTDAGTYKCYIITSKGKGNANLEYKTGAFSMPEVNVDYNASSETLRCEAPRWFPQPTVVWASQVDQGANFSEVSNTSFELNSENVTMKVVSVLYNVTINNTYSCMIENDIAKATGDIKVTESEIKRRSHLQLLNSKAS
- procedureSummary: Octet BLI, hIgG1-TM on Protein G (n = 4-7)
Lab note: compare koff with 0.0004 s⁻¹, writing class 1 if less and class 0 if equal or more.

I'd appreciate it if you could check whether ZY0EO5-E07 human IgG1-TM (antibody, V domains shown, also called ZY0E05-E07; E05-E07) VH: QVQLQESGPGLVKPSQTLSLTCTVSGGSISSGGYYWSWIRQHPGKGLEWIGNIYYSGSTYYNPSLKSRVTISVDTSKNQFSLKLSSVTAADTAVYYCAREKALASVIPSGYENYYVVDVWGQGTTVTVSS VL: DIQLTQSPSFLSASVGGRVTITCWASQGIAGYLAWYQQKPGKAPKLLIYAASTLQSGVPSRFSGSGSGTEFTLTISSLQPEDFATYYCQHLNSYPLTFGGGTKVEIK has koff smaller than 0.0004 s⁻¹.
class 1

// same read-out, input: ZY0EPQ-E02 human IgG1-TM (antibody, V domains shown) VH: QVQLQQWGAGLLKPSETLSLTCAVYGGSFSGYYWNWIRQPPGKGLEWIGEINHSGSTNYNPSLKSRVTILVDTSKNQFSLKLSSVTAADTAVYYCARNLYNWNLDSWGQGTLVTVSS VL: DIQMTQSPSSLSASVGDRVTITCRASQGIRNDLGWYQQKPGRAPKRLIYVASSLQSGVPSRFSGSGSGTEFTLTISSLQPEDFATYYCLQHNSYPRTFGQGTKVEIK
class 0

// same read-out, input: ZY0EOB-F05 human IgG1-TM (antibody, V domains shown) VH: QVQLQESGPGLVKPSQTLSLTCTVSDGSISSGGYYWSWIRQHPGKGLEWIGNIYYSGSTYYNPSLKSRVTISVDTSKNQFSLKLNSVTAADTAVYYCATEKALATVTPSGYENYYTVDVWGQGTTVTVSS VL: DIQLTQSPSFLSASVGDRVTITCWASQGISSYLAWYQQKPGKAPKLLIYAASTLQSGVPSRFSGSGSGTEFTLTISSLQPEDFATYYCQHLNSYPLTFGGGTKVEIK
class 1

// same read-out, input: ZY0EQD-E02 human IgG1-TM (antibody, V domains shown) VH: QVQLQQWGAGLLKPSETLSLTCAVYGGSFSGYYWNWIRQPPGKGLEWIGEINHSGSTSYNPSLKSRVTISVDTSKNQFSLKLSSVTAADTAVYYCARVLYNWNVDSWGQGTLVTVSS VL: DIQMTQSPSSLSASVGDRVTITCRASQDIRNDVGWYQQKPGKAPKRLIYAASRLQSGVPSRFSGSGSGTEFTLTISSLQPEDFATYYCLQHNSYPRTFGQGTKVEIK
class 0
